Cited source for all entries: ChEMBL document CHEMBL3399976

Study system: Protein kinase C alpha type (Homo sapiens, UniProt P17252)
pIC50: −log10 of the molar value.
Quantity name: pIC50

So the reported pIC50 for Cc1c(Cc2cccc(N(C)S(=O)(=O)CCCNCCCCCC(=O)N3CCN(c4nc(N5CCOCC5)nc(-n5c(C(F)F)nc6ccccc65)n4)CC3)c2)c(=O)oc2cc(OC(=O)N(C)C)ccc12 , on Protein kinase C alpha type (Homo sapiens, UniProt P17252), turned out to be < 5.00
